- tested-system: 5-HT1A receptor (Rattus norvegicus)
- Sequence (P19327 1-422): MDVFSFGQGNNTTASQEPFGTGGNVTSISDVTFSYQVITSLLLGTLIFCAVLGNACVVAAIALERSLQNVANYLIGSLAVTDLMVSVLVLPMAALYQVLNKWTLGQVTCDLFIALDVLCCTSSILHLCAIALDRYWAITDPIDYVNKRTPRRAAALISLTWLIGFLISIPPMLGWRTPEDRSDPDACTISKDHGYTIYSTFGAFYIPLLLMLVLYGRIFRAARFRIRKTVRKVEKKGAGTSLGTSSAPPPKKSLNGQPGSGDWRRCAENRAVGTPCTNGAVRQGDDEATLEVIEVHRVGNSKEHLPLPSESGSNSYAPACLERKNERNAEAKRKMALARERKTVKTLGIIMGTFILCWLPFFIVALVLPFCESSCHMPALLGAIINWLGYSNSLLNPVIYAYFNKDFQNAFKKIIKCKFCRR
A collection of molecules and their measured IC50
Field: numeric (nM). Do not append units.

Consider the worked cases shown below.
>  <molecule>
COc1ccccc1N1CCN(CC(C(=O)NC(C)(C)C)c2ccccc2)CC1 (single isomer, unassigned; (+)) [(+)-enantiomer]

>  <result>
15.5

$$$$
>  <molecule>
COc1ccccc1N1CCN(CC(C(=O)NC(C)(C)C)c2ccccc2)CC1 (racemic) [racemate]

>  <result>
34

$$$$

--- query ---
Simply: COc1ccccc1N1CCN(CC[C@@H](C(=O)N2CCCCCC2)c2ccccc2)CC1 , 5-HT1A receptor (Rattus norvegicus), IC50 = 0.3

---

- tested-system: D1 (Rattus norvegicus, UniProt P18901)
- Construct: from tissue
- Sequence (P18901 whole entry): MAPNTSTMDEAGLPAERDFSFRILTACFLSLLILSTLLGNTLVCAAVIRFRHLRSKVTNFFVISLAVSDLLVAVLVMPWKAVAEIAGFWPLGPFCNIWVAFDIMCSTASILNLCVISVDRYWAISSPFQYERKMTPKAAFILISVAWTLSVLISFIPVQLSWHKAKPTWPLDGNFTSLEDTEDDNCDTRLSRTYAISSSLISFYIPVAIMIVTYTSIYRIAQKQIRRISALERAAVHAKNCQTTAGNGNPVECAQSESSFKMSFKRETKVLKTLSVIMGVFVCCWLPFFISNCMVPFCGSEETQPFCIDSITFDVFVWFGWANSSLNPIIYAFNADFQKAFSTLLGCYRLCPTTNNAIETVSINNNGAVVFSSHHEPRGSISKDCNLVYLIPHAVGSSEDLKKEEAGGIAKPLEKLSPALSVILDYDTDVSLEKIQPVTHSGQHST
- measurement-protocol: Procedure (B): affinity for D1 sites
- protocol-conditions: 10^-6 M; read-out: % inhibition of binding at D1
experimental-readout: inhibition at 1 µM (%)
Field: numeric (%). Do not append units.

>  <compound>
COc1ccccc1N1CCN(CC(C(=O)NC(C)(C)C)c2ccccc2)CC1 (racemic) [racemate]

>  <inhibition at 1 µM (%)>
20

$$$$

--- query ---
Per the record, COc1ccccc1N1CCN(CC(C(=O)NC(C)(C)C)c2ccccc2)CC1 (single isomer, unassigned; (+)) [(+)-enantiomer] has inhibition at 1 µM of 22

---

- tested-system: D2 (Homo sapiens, UniProt P14416)
- Sequence (P14416 whole entry): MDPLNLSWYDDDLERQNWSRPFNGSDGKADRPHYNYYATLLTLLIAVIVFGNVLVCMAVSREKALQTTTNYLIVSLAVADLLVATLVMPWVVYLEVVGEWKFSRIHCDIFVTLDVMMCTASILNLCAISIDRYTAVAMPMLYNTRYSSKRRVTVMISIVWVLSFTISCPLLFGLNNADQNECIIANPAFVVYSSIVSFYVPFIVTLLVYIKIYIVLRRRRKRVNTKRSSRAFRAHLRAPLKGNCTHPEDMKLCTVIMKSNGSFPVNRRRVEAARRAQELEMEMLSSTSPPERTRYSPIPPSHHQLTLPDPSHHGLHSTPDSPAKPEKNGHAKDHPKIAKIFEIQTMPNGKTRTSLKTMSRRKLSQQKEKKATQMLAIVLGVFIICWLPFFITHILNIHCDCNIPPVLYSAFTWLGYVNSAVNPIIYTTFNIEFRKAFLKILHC
- measurement-protocol: Procedure (B): affinity for D2 receptor sites
- protocol-conditions: procedure (B)
experimental-readout: IC50 (nM)
Field: numeric (nM). Do not append units.

Per the record, COc1ccccc1N1CCN(CC[C@@H](C(=O)N2CCCCCC2)c2ccccc2)CC1 [(c)] has IC50 of 277

---

A collection of molecules and their measured inhibition at 1 µM
- tested-system: α2 (Rattus norvegicus, UniProt P22909)
- Construct: from tissue
- Sequence (P22909 whole entry): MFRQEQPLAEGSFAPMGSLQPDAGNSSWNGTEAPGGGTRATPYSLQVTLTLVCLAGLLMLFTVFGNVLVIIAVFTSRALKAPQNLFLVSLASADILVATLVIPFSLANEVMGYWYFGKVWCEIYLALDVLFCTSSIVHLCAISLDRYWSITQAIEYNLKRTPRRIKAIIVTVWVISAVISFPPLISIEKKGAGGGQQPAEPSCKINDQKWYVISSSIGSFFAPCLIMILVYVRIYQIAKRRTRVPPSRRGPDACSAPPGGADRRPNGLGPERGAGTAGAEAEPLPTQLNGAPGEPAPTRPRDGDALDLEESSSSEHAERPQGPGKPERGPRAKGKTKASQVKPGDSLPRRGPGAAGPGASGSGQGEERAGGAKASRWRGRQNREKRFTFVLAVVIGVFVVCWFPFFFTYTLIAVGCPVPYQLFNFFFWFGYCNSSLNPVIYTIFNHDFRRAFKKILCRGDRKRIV
- measurement-protocol: Procedure (B): affinity for α2 sites
- protocol-conditions: 10^-6 M; read-out: % inhibition of binding at α2
Field: numeric (%). Do not append units.

>  <molecule>
COc1ccccc1N1CCN(CC(C(=O)NC(C)(C)C)c2ccccc2)CC1 (racemic) [racemate]

>  <tested-system>
α2 (Rattus norvegicus, UniProt P22909)

>  <inhibition at 1 µM, %>
10

$$$$
>  <molecule>
COc1ccccc1N1CCN(CC[C@@H](C(=O)N2CCCCCC2)c2ccccc2)CC1

>  <tested-system>
α2 (Rattus norvegicus, UniProt P22909)

>  <inhibition at 1 µM, %>
53

$$$$

--- query ---
Per the record, COc1ccccc1N1CCN(CC(C(=O)NC(C)(C)C)c2ccccc2)CC1 (single isomer, unassigned; (+)) [(+)-enantiomer] has inhibition at 1 µM of 11

---

- tested-system: 5-HT1B (Rattus norvegicus)
- Construct: from tissue
- Sequence (P28564 whole entry): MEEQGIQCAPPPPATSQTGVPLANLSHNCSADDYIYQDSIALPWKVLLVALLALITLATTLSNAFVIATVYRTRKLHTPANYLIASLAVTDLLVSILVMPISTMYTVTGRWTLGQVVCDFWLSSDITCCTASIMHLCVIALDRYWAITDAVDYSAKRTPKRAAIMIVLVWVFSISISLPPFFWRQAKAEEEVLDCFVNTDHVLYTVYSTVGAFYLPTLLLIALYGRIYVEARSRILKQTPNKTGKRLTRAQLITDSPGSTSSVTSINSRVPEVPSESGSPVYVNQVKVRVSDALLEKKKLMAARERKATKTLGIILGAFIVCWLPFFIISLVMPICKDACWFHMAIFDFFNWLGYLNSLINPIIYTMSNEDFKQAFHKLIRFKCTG
- measurement-protocol: Procedure (B): affinity for 5-HT1B sites
- protocol-conditions: 10^-6 M; read-out: % inhibition of binding at 5-HT1B
experimental-readout: inhibition at 1 µM

Consider the worked cases shown below.
>  <compound>
COc1ccccc1N1CCN(CC(C(=O)NC(C)(C)C)c2ccccc2)CC1 (racemic) [racemate]

>  <tested-system>
5-HT1B (Rattus norvegicus)

>  <inhibition at 1 µM>
27%

$$$$
>  <compound>
COc1ccccc1N1CCN(CC(C(=O)NC(C)(C)C)c2ccccc2)CC1 (single isomer, unassigned; (+)) [(+)-enantiomer]

>  <tested-system>
5-HT1B (Rattus norvegicus)

>  <inhibition at 1 µM>
22%

$$$$
>  <compound>
COc1ccccc1N1CCN(CC[C@@H](C(=O)N2CCCCCC2)c2ccccc2)CC1

>  <tested-system>
5-HT1B (Rattus norvegicus)

>  <inhibition at 1 µM>
< 50%

$$$$

--- query ---
Per the record, COc1ccccc1N1CCN(CCN(C(=O)C2CCCCC2)c2ccccn2)CC1 has inhibition at 1 µM of < 50%

---

- tested-system: 5-HT1A binding site (Rattus norvegicus)
- measurement-protocol: biochemical
pIC50: −log10 of the molar value.
A collection of compounds and their measured pIC50

Consider the worked cases shown below.
>  <compound>
COC(=O)c1cc2c(N3CCN(CCCCN4C(=O)c5ccccc5S4(=O)=O)CC3)cccc2[nH]1

>  <result>
8.30

$$$$
>  <compound>
COc1ccccc1N1CCN(CCCCN2C(=O)c3ccccc3C2=O)CC1

>  <result>
7.00 to 8.00

$$$$

Per the record, CSc1ccc2c(c1)C(N1CCN(C)CC1)Cc1ccccc1S2 (stereo not shown) [methiothepin] has pIC50 of 7.00 to 8.00

Per the record, NCCc1c[nH]c2ccc(C(N)=O)cc12 has pIC50 of 7.00 to 8.00

---

- tested-system: 5-HT2A (Rattus norvegicus, UniProt P14842)
- Sequence (P14842 whole entry): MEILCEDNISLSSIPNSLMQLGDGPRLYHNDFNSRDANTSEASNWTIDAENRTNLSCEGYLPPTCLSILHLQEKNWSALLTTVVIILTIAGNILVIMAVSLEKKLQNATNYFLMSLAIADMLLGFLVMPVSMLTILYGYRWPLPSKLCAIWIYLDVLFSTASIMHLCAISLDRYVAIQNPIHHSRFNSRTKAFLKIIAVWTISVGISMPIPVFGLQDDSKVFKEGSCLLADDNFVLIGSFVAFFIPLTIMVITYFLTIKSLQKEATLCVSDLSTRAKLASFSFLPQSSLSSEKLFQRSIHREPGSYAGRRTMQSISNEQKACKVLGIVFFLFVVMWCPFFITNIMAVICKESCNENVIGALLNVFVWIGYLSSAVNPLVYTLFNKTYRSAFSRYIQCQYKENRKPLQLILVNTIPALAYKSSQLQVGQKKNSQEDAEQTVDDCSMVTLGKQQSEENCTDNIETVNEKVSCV
experimental-readout: pIC50
Formally, pIC50 is defined as -log10 of the concentration c, with c in mol/L.

Per the record, COc1ccccc1N1CCN(CC[C@@H](C(=O)N2CCCCCC2)c2ccccc2)CC1 has pIC50 of 6.97
